Taken from PubChem BioAssay (NCI).

ASSAY OVERVIEW: NCI Yeast Anticancer Drug Screen. Data for the rad50 strain (AID 155);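 note: 0% = growth of vehicle-only cultures of the same strain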
CONDITION LABEL: S. cerevisiae rad50 strain growth inhibition; at 5.0 µM (retest, dose inferred, filed as 0.5); stronger effect = higher value
Compounds without any hit were thinned out: in the full panel of roughly 79,000, 15% have a hit.
QUANTITY NAME: growth inhibition (%)
Reply numerically in %, unit not repeated.

Please review the entries below; each comes with its answer.
Prompt line: Item `CC1=C(CO)C(=O)O[C@@H]([C@@H](C)[C@H]2CC[C@H]3[C@@H]4C[C@@H](O)C5=CC=CC(=O)[C@]5(C)[C@H]4CC[C@]23C)C1` has what recorded growth inhibition?
Response line: -2

Prompt line: Record request: growth inhibition value, item COc1ccc2c(c1)CCC1OC(c3cccnc3)OC21 (configuration not stated)
Response line: -1

Prompt line: growth inhibition for `CC(=O)Nc1ccc(-c2csc(Nc3ccnc4cc(Cl)ccc34)n2)cc1` ?
Response line: 12

Prompt line: Given `Nc1cc(F)cc(F)c1[N+](=O)[O-]` , state its recorded growth inhibition.
Response line: 4

Prompt line: Item under review: CCOC(=O)Nc1cc(NC(C)/C(=N/O)c2ccccc2)c([N+](=O)[O-])c(N)n1 (configuration not stated) . Reported growth inhibition?
Response line: -18

Prompt line: Returns the measured growth inhibition for the input compound. Input: `Cc1nc(-c2cccc(Cl)c2)oc1-c1ccccc1`
Response line: 2

***
Prompt line: What value of measured growth inhibition is listed for CN(C)C1CCC2C(=C1OC(=O)c1ccccc1)C=Cc1ccccc12 (configuration not stated) ?
Response line: -1
